Where these numbers come from: PubChem BioAssay

assayProcedure: COS7 lysate on small-molecule microarray, probe aHis, 635 nm (AID 1123);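 note: z-score combines 667nm fluorescence intensity with signal-to-noise per printed compound spot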
setupConditions: COS7 cell lysate, fluorescence, higher = more signal
Quick reference for composite z-score among some molecules

molecule	composite z-score
C#CCCCON=C1C[C@@H](O)[C@@H](O)[C@@H]2[C@@H]3C(=O)N([C@@H](C)c4ccccc4)C(=O)[C@@H]3CC[C@@H]12	0.0072
CON=C(C)CCN1CCCc2nc(C)c(C)cc21	1.42
COC(=O)[C@H](C)NC(=O)CCC1CC(OC(=O)NCc2cccc3ccccc23)CC2(CCCC(COC(=O)NCCC(C)C)O2)O1 (stereo not given in full)	1.01
CC(CCN1CCc2nc(-c3ccccc3)c(-c3ccccc3)cc2C1)=NO[C@H](C)c1cn([C@H](CO)Cc2ccccc2)nn1	0.585
CCOC(=O)[C@H](CC(C)C)NC(=O)CCC1CC(OC(=O)NCc2ccc3c(c2)OCO3)CC2(CCCC(COC(=O)NCCc3ccc(Cl)cc3)O2)O1 (stereo not given in full)	0.817
CCCNC(=O)OC[C@H]1O[C@H](CCON=C[C@@H](NS(=O)(=O)c2ccc(C)cc2)[C@H](C)C=CCC(=O)OC)C=C[C@@H]1Oc1ccc(OC)cc1	-0.192
O=C1CCCC=C1C(O)COCc1ccccc1 (stereo not given)	0.428
Cc1cc(C)c(-c2cc([C@H](C)ON=C[C@@H](C)[C@H](OCc3ccccc3)C(C)C)on2)c(C)c1	-0.244
CCOC(=O)[C@H](Cc1ccccc1)NC(=O)CCC1CC(OC(=O)NCc2cccc3ccccc23)CC2(CCCC(COC(=O)NCC3CCCCC3)O2)O1 (stereo not given in full)	0.745
CCc1cc2c(nc1CC)CCN(CCC(C)=NO[C@@H]1O[C@H](COC(C)=O)[C@@H](OC(C)=O)[C@H](OC(C)=O)[C@H]1OC(C)=O)C2	1.34
CO[C@@H]1C=CCC(=O)N[C@@H](C)C(=O)OC[C@@H](NS(=O)(=O)c2ccc(C)cc2)[C@H](C)C=CCC(=O)OC[C@H]1C	-0.971
O=C1C=C[C@@H](O)[C@@H]2[C@@H]3C(=O)N(Cc4ccccc4)C(=O)[C@@H]3CC[C@@H]12	0.556
C#CCCCON=C1[C@H]2CCn3c(=O)n([C@@H](CC)c4ccccc4)c(=O)n3[C@H]2[C@H](O)[C@@H]2O[C@H]12	0.219
CC(C)(C)N1C(=O)[C@H]2[C@H]3[C@H](O)[C@H](O)CC(=NNC(=O)OCc4ccccc4)[C@@H]3CC[C@H]2C1=O	0.728
CCN1C(=O)[C@H]2[C@H]3[C@H](O)[C@H](O)CC(=NOCC(C)C)[C@H]3CC[C@H]2C1=O	-0.302

====

assayProcedure: A549 cell viability effects, profiling panel, calcein-AM fluorescence, 48 h, basal (AID 1162); note: test concentration not given here
setupConditions: higher = more signal
Below, each entry is listed alongside its reported z-score.
readoutType: z-score

compound	readoutType	reading
C=C(C)C(=O)OC[C@H]1CN2[C@@H](CC[C@@H](C)[C@@H]2c2ccc(Br)cc2)C(=O)O1	z-score	0.824
COc1ccc(OC[C@H]2CN3[C@@H](CC[C@@H](C)[C@@H]3c3ccc(Br)cc3)C(=O)O2)cc1	z-score	-0.0668
CC(C)[C@H](NC(=O)OC(C)(C)C)[C@@H](O)CC(=O)C(C)(C)C	z-score	-0.0305
COCOc1ccc(Br)cc1C(=O)C=Cc1ccc2c(c1)OCO2	z-score	-0.206
CO[C@@H]1COC(=O)CC=C[C@H](C)[C@H](OC)COC(=O)[C@@H]2CCCN2C(=O)CC=C[C@H]1C	z-score	-0.125
CC(C)CON=C1C[C@@H](O)[C@@H](O)[C@@H]2[C@@H]3C(=O)N(Cc4ccc5c(c4)OCO5)C(=O)[C@@H]3CC[C@@H]12	z-score	0.606
Cc1ccc(S(=O)(=O)N[C@@H]2COC(=O)CC=C[C@@H](C)[C@H](NS(=O)(=O)c3ccc(C)cc3)COC(=O)[C@H](C)NC(=O)CC=C[C@H]2C)cc1	z-score	0.697
C[C@H]1CC[C@@H](C(=O)O)N[C@@H]1c1ccc(C#Cc2ccccc2)cc1	z-score	-2.1
COC(=O)[C@H](C)NC(=O)CCC1CC(OC(=O)NCc2ccc3c(c2)OCO3)CC2(CCCC(COC(=O)NCCC(C)C)O2)O1 (stereo partly drawn)	z-score	-0.121
C[C@@H]1CC[C@H]2C(=O)OC(CN3C(=O)c4ccccc4C3=O)CN2[C@H]1c1ccc(Br)cc1 (stereo partly drawn)	z-score	0.0752
C=CC[C@@H]1C=C[C@H](Oc2ccc(C)cc2)[C@@H](COC(=O)NCc2cccc3ccccc23)O1	z-score	-0.273
COc1ccc(O[C@H]2C=C[C@@H](C#Cc3ccccc3)O[C@@H]2CO)cc1	z-score	-0.167
CC1(C)O[C@H]2OC([C@H](O)CON3C(=O)c4ccccc4C3=O)[C@H](O)[C@H]2O1 (stereo partly drawn)	z-score	0.23
CON(C)C(=O)c1nnc2c(n1)[nH]c1ccccc12	z-score	-0.681
CC(CCN1CCCc2nc(C)c(C)cc21)=NOC[C@@H](O)COCc1ccco1	z-score	0.604
CC(=O)OC[C@H]1O[C@H](CC=NOC(C)CN2CCCc3nc(C)c(C)cc32)C=C[C@@H]1OC(C)=O (stereo partly drawn)	z-score	-0.234
CCc1cc2c(nc1CC)CCN(CCC(C)=NOC(C)CN1CCCCc3nc(C)c(C)cc31)C2 (stereo not drawn)	z-score	0.115
OC[C@H]1O[C@H](C#Cc2ccccc2)C=C[C@@H]1O	z-score	-0.259
COC(=O)CC=C[C@@H](C)[C@@H](C=NOC(C)CN1CCCCc2nc(C)c(C)cc21)OC (stereo partly drawn)	z-score	-0.165
COC(=O)[C@H](C)NC(=O)CC=C[C@@H](C)[C@@H]1C=C[C@H](O)[C@@H](CO)O1	z-score	-0.244
COC(=O)CC=C[C@@H](C)[C@@H](C=NOC[C@@H](C)[C@H](OCc1ccccc1)C(C)C)OC	z-score	-0.37
CCOC(=O)[C@H](Cc1ccccc1)NC(=O)CCC1CC(OC(=O)NCc2ccc3c(c2)OCO3)CC2(CCCC(COC(=O)NCCCN3CCCC3=O)O2)O1 (stereo partly drawn)	z-score	0.0325
O=C1C[C@@H](O)[C@@H](O)[C@@H]2[C@@H]3C(=O)N(C4CCCCC4)C(=O)[C@@H]3CC[C@@H]12	z-score	0.112
CC(C)CON=C1C[C@@H](O)[C@@H](O)[C@@H]2[C@@H]3C(=O)N([C@@H](C)c4ccccc4)C(=O)[C@@H]3CC[C@@H]12	z-score	-0.398
CCc1cc2c(nc1CC)CCN(CCC(C)=NOC[C@@H](C)[C@H](OCc1ccccc1)C(C)C)C2	z-score	1.58
COC(=O)[C@H](C)NC(=O)CCC1CC(OC(=O)NCc2ccc3c(c2)OCO3)CC2(CCCC(COC(=O)NCc3ccccc3)O2)O1 (stereo partly drawn)	z-score	3.03
CCOC(=O)CCN1C(=O)[C@H]2[C@H]3[C@H](O)[C@H](O)CC(=NNC(=O)OCc4ccccc4)[C@H]3CC[C@H]2C1=O	z-score	0.391
O=C1CCCC=C1C(O)c1ccc([N+](=O)[O-])cc1 (stereo not drawn)	z-score	-0.419
CCc1cc2c(nc1CC)CCN(CCC(C)=NO[C@@H]1O[C@H](COC(C)=O)[C@@H](OC(C)=O)[C@H](OC(C)=O)[C@H]1OC(C)=O)C2	z-score	-0.984
CON=C(C)CCC(=O)OC[C@H]1O[C@H](C#Cc2ccccc2)C=C[C@@H]1Oc1ccc(C)cc1	z-score	-0.631
CON=C(C)CCN1CCCc2nc(C)c(C)cc21	z-score	0.604
CCOC(=O)[C@H](CC(C)C)NC(=O)CCC1CC(OC(=O)NCc2ccc3c(c2)OCO3)CC2(CCCC(COC(=O)NCCc3ccccc3OC)O2)O1 (stereo partly drawn)	z-score	-0.47
CC(C)CON=C1C[C@@H](O)[C@@H](O)[C@@H]2[C@@H]3C(=O)N(C(C)(C)C)C(=O)[C@@H]3CC[C@@H]12	z-score	-0.502

====

assayProcedure: basal S. cerevisiae growth modulation, no modifier, primary screen, OD600, strain BY4716, 24 h, basal condition (AID 1173)
setupConditions: OD600, 24 h, higher = more signal, called active from +8 up or from −8 down
Listed here: items and their measured z-score.

compound	z-score
CCOC(=O)[C@H](Cc1ccccc1)NC(=O)CCC1CC(OC(=O)NCc2ccc3c(c2)OCO3)CC2(CCCC(COC(=O)NCCOC)O2)O1 (stereo partly drawn)	-0.914
CCOC(=O)CCN1C(=O)[C@H]2[C@H]3[C@H](O)[C@H](O)CC(=O)[C@@H]3CC[C@H]2C1=O	-0.375
CON=C(C)CCN1CCCc2nc(C)c(C)cc21	-0.899
C[C@H]1CC[C@H]2C(=O)O[C@H](CO)CN2[C@@H]1c1ccc(Br)cc1	-8.2
CON=C(C)CCC(=O)OC[C@H]1O[C@H](C#Cc2ccccc2)C=C[C@@H]1Oc1ccc(C)cc1	-0.944
C#CCCCON=C1[C@H]2CCn3c(=O)n(Cc4cc5c(cc4Cl)OCO5)c(=O)n3[C@H]2[C@H](O)[C@@H]2O[C@H]12	0.606
C#CCCCON=C1C[C@@H](O)[C@@H](O)[C@@H]2[C@@H]3C(=O)N([C@@H](C)c4ccccc4)C(=O)[C@@H]3CC[C@@H]12	0.858
COc1ccc(COC(=O)NN=C2C[C@@H](O)[C@@H](O)[C@@H]3[C@@H]4C(=O)N([C@@H](C)c5ccccc5)C(=O)[C@@H]4CC[C@H]23)cc1	-0.111
